# test protocol: Tissue distribution of selenium-75-labelled sterols in rats, sixth day post-injection
# Format: in vivo, rats of the C.F.Y. strain
# condition set: male rats, tail vein, dose: 1, 7: 40 μCi, 6: 50 μCi, 3: 30 μCi, 4: 1.5 μCi, 5: 10 μCi, 8: 6.3 μCi
property: % dose kg./g. in Testes
The reply must contain the numeric value and, after it, the unit.

>  <compound>
CCCC[75Se]C[C@@H]1C[C@@H]2[C@H](CC[C@]3(C)[C@@H]([C@H](C)CCCC(C)C)CC[C@@H]23)C2=C1C[C@@H](O)CC2

>  <% dose kg./g. in Testes>
0.023 % dose kg./g.

$$$$
>  <compound>
CC(C)CCC[C@@H](C)[C@H]1CC[C@H]2[C@@H]3C[C@@H](C[75Se]C4CCCCC4)C4=C(CC[C@H](O)C4)[C@H]3CC[C@]12C

>  <% dose kg./g. in Testes>
0.034 % dose kg./g.

$$$$
>  <compound>
CC(C)CCC[C@@H](C)[C@H]1CC[C@H]2[C@@H]3C[C@@H](C[75Se]Cc4ccccc4)C4=C(CC[C@H](O)C4)[C@H]3CC[C@]12C

>  <% dose kg./g. in Testes>
0.042 % dose kg./g.

$$$$
>  <compound>
C[75Se]C[C@@H]1C[C@@H]2[C@H](CC[C@]3(C)[C@@H]([C@H](C)CCCC(C)C)CC[C@@H]23)C2=C1C[C@@H](O)CC2

>  <% dose kg./g. in Testes>
0.044 % dose kg./g.

$$$$
>  <compound>
CC(C)CCC[C@@H](C)[C@H]1CC[C@H]2[C@@H]3C[C@@H](C[75Se]c4ccccc4)C4=C(CC[C@H](O)C4)[C@H]3CC[C@]12C

>  <% dose kg./g. in Testes>
0.039 % dose kg./g.

$$$$

Let me know recorded % dose kg./g. in Testes for C[75Se]C[C@@H]1C[C@@H]2[C@H](CC[C@]3(C)[C@@H]([C@H](C)CCCC(C)C)CC[C@@H]23)C2=C1C[C@@H](OC(C)=O)CC2 , thanks.
0.041 % dose kg./g.

Let me know recorded % dose kg./g. in Testes for CC(C)CCC[C@@H](C)[C@H]1CC[C@H]2[C@@H]3C[C@@H](C[75Se](C)=O)C4=C(CC[C@H](O)C4)[C@H]3CC[C@]12C (stereo partly shown) , thanks.
0.046 % dose kg./g.

Where do the numbers come from? From patent US4083947A.
